Measurement record for Poly [ADP-ribose] polymerase 1 (Homo sapiens, UniProt P09874); quantity recorded: IC50.
Give just the number in nM; leave the unit off.

Past entries and their recorded results:
[
  {
    "Compound": "Cc1noc(C)c1-c1ccc2c(c1)C(c1ccccc1)N(Cc1nc3c(C(N)=O)cccc3[nH]1)C(=O)N2C (stereo not drawn)",
    "Target Or System": "Poly [ADP-ribose] polymerase 1 (Homo sapiens, UniProt P09874)",
    "Test Result": 49
  },
  {
    "Compound": "Cc1noc(C)c1-c1ccc2c(c1)C(c1ccccc1)N(CC(=O)N[C@@H](C)c1nc3c(C(N)=O)cccc3[nH]1)C(=O)N2C (stereo partly drawn)",
    "Target Or System": "Poly [ADP-ribose] polymerase 1 (Homo sapiens, UniProt P09874)",
    "Test Result": 187
  }
]

API: value(readout= IC50, system= Poly [ADP-ribose] polymerase 1 (Homo sapiens, UniProt P09874), query= Cc1noc(C)c1-c1ccc2c(c1)C(c1ccccc1)N(CC(=O)N[C@H](C)c1nc3c(C(N)=O)cccc3[nH]1)C(=O)N2 (stereo partly drawn) ) 112

----------
Test system: THP-1
Test: Antiproliferative activity against human THP-1 cells expressing BRD4 assessed as inhibition of cell growth measured after 3 days by MTT assay
Type: functional, cell-based
Conditions: THP-1, 72 h
pIC50: −log10 of the molar value.
Output MET for pIC50 not less than 6; output NOT MET otherwise.

Reference set (5 entries):
[
  {
    "Compound": "Cc1noc(C)c1-c1ccc2c(c1)C(c1ccccc1)N(Cc1nc3c(C(N)=O)cccc3[nH]1)C(=O)N2C (centres undefined)",
    "Answer Label": "MET"
  },
  {
    "Compound": "Cc1noc(C)c1-c1ccc2c(c1)C(c1ccccc1)N(Cc1nc3c(C(N)=O)cccc3[nH]1)C(=O)N2 (centres undefined)",
    "Answer Label": "MET"
  },
  {
    "Compound": "O=C(c1cc(Cc2n[nH]c(=O)c3ccccc23)ccc1F)N1CCN(C(=O)C2CC2)CC1 [OLAPARIB]",
    "Answer Label": "NOT MET"
  },
  {
    "Compound": "Cc1noc(C)c1-c1ccc2c(c1)C(c1ccccc1)N(CC(=O)N[C@@H](C)c1nc3c(C(N)=O)cccc3[nH]1)C(=O)N2 (some centres undefined)",
    "Answer Label": "NOT MET"
  },
  {
    "Compound": "Cc1sc2c(c1C)C(c1ccc(Cl)cc1)=N[C@@H](CC(=O)OC(C)(C)C)c1nnc(C)n1-2",
    "Answer Label": "MET"
  }
]

Note: attention shifts to another entry.
Textbook exercise: given the entry Cc1noc(C)c1-c1ccc2c(c1)C(c1ccccc1)N(CC(=O)c1nc3c(C(N)=O)cccc3[nH]1)C(=O)N2 (centres undefined) , state whether its pIC50 is greater than or equal to 6. NOT MET

----------
Molecular target: Bromodomain-containing protein 4 (Homo sapiens)
Test: Inhibition of BRD4-BD1/2 (unknown origin)
The compounds listed here are annotated with their pIC50.
Please note pIC50 is a logarithmic value: minus log10 of concentration in mol/L. Answer with that number alone.

Use the examples below as a reference point.
[
  {
    "Compound": "Cc1noc(C)c1-c1ccc2c(c1)C(c1ccccc1)N(CC(=O)NCc1nc3c(C(N)=O)cccc3[nH]1)C(=O)N2C (centres undefined)",
    "Test Result": 6.27
  },
  {
    "Compound": "Cc1noc(C)c1-c1ccc2c(c1)C(c1ccccc1)N(CC(=O)N[C@H](C)c1nc3c(C(N)=O)cccc3[nH]1)C(=O)N2 (some centres undefined)",
    "Test Result": 6.94
  },
  {
    "Compound": "Cc1noc(C)c1-c1ccc2c(c1)C(c1ccccc1)N(CC(=O)NC(C)(C)c1nc3c(C(N)=O)cccc3[nH]1)C(=O)N2 (centres undefined)",
    "Test Result": 6.99
  },
  {
    "Compound": "Cc1noc(C)c1-c1ccc2c(c1)C(c1ccccc1)N(Cc1nc3c(C(N)=O)cccc3[nH]1)C(=O)N2 (centres undefined)",
    "Test Result": 7.37
  },
  {
    "Compound": "Cc1noc(C)c1-c1ccc2c(c1)C(c1ccccc1)N(CC(=O)N[C@@H](C)c1nc3c(C(N)=O)cccc3[nH]1)C(=O)N2 (some centres undefined)",
    "Test Result": 7.05
  },
  {
    "Compound": "Cc1noc(C)c1-c1ccc2c(c1)C(c1ccccc1)N(CC(=O)N[C@@H](C)c1nc3c(C(N)=O)cccc3[nH]1)C(=O)N2C (some centres undefined)",
    "Test Result": 6.49
  }
]

pIC50 of Cc1noc(C)c1-c1ccc2c(c1)C(c1ccccc1)N(Cc1nc3c(C(N)=O)cccc3[nH]1)C(=O)N2C (centres undefined) on Bromodomain-containing protein 4 (Homo sapiens)? 6.69

Hello, I am looking for reported pIC50 with Bromodomain-containing protein 4 (Homo sapiens) for Cc1noc(C)c1-c1ccc2c(c1)C(c1ccccc1)N(CC(=O)NC(c1nc3c(C(N)=O)cccc3[nH]1)C(C)C)C(=O)N2 (centres undefined) . Could you help? 6.94

# returns recorded pIC50 (system: Bromodomain-containing protein 4 (Homo sapiens)) for Cc1noc(C)c1-c1ccc2c(c1)C(c1ccccc1)N(CC(=O)c1nc3c(C(N)=O)cccc3[nH]1)C(=O)N2 (centres undefined) 6.88
